Sourced from paper PMC9782510

- System: mushroom tyrosinase
- test: Mushroom tyrosinase inhibitory activity (L-tyrosine substrate)
- Assay type: biochemical
- experimental parameters: at initial concentration of 1 mg/mL; means ± SEMs
reported property: Tyrosinase Inhibition (%)
Give the value, in units of %, as a plain number.

Quote mushroom tyrosinase Tyrosinase Inhibition (%) for entry COC(=O)[C@H](O)[C@@H](OC(=O)/C=C/c1ccc(O)cc1)C(=O)O .
53.54

Quote mushroom tyrosinase Tyrosinase Inhibition (%) for entry COC(=O)C[C@H]1CCC(=O)[C@H]1C/C=C\CCO[C@@H]1O[C@H](CO)[C@@H](O)[C@H](O)[C@H]1O [Compound 14, methyl-β-D-glucopyranosyl tuberonate] .
37.71

***
Quote mushroom tyrosinase Tyrosinase Inhibition (%) for entry O=c1c(O)c(-c2ccc(O)c(O)c2)oc2cc(O)cc(O)c12 .
77.29

Quote mushroom tyrosinase Tyrosinase Inhibition (%) for entry CC(=O)CCc1ccc(O[C@@H]2O[C@H](CO)[C@@H](O)[C@H](O)[C@H]2O)cc1 .
35.63

Quote mushroom tyrosinase Tyrosinase Inhibition (%) for entry COC(=O)[C@@H](O)[C@H](OC(=O)/C=C/c1ccc(O)cc1)C(=O)OC .
53.13

Quote mushroom tyrosinase Tyrosinase Inhibition (%) for entry C[C@@H]1O[C@@H](Oc2c(-c3cc(O)c(O)c(O)c3)oc3cc(Oc4cc(O)c5c(=O)c(O[C@@H]6O[C@@H](C)[C@H](O)[C@@H](O)[C@H]6O)c(-c6cc(O)c(O)c(O)c6)oc5c4)cc(O)c3c2=O)[C@H](O)[C@H](O)[C@H]1O .
66.04

Quote mushroom tyrosinase Tyrosinase Inhibition (%) for entry O=C(O)c1cc(O)c(O)c(O)c1 .
80.00

Quote mushroom tyrosinase Tyrosinase Inhibition (%) for entry O=C1c2c(O[C@@H]3O[C@H](CO)[C@@H](O)[C@H](O)[C@H]3O)cc(O)cc2OC1(O)Cc1ccc(O)cc1 (some centres unmarked) [Compound 15, hovetrichoside C] .
42.08

Quote mushroom tyrosinase Tyrosinase Inhibition (%) for entry O=c1c(O)c(-c2cc(O)c(O)c(O)c2)oc2cc(O)cc(O)c12 .
60.00

Quote mushroom tyrosinase Tyrosinase Inhibition (%) for entry C[C@@H]1O[C@@H](Oc2c(-c3ccc(O)cc3)oc3cc(O)cc(O)c3c2=O)[C@H](O)[C@H](O)[C@H]1O .
32.71

Quote mushroom tyrosinase Tyrosinase Inhibition (%) for entry COc1cc(-c2oc3cc(O)cc(O)c3c(=O)c2O)ccc1O .
44.17

Quote mushroom tyrosinase Tyrosinase Inhibition (%) for entry C[C@@H]1O[C@@H](Oc2c(-c3ccc(O)c(O)c3)oc3cc(O)cc(O)c3c2=O)[C@H](O)[C@H](O)[C@H]1O .
39.17

Quote mushroom tyrosinase Tyrosinase Inhibition (%) for entry O=c1c(O)c(-c2ccc(O)cc2)oc2cc(O)cc(O)c12 .
57.50

Quote mushroom tyrosinase Tyrosinase Inhibition (%) for entry CC[C@H](CC[C@@H](C)[C@H]1CC[C@H]2[C@@H]3CC=C4C[C@@H](O[C@@H]5O[C@H](CO)[C@@H](O)[C@H](O)[C@H]5O)CC[C@]4(C)[C@H]3CC[C@]12C)C(C)C .
29.79

* * *

- assay target: mushroom tyrosinase
- test: Mushroom tyrosinase inhibitory activity (L-tyrosine substrate)
- experimental parameters: read-out: Tyrosinase inhibition IC50
Note that class boundaries on IC50 are low band: < 2 mM; middle band: ≥ 2 mM and < 5 mM; high band: ≥ 5 mM

Record excerpt, results attached:
Pick a category. Item: O=C1c2c(O[C@@H]3O[C@H](CO)[C@@H](O)[C@H](O)[C@H]3O)cc(O)cc2OC1(O)Cc1ccc(O)cc1 (stereo partly drawn) [Compound 15, hovetrichoside C]
middle band

Pick a category. Item: O=c1c(O)c(-c2ccc(O)cc2)oc2cc(O)cc(O)c12
low band

Pick a category. Item: CC[C@H](CC[C@@H](C)[C@H]1CC[C@H]2[C@@H]3CC=C4C[C@@H](O[C@@H]5O[C@H](CO)[C@@H](O)[C@H](O)[C@H]5O)CC[C@]4(C)[C@H]3CC[C@]12C)C(C)C
high band

***
Pick a category. Item: COc1cc(-c2oc3cc(O)cc(O)c3c(=O)c2O)ccc1O
middle band

Pick a category. Item: COC(=O)[C@@H](O)[C@H](OC(=O)/C=C/c1ccc(O)cc1)C(=O)OC
middle band

Pick a category. Item: C[C@@H]1O[C@@H](Oc2c(-c3cc(O)c(O)c(O)c3)oc3cc(Oc4cc(O)c5c(=O)c(O[C@@H]6O[C@@H](C)[C@H](O)[C@@H](O)[C@H]6O)c(-c6cc(O)c(O)c(O)c6)oc5c4)cc(O)c3c2=O)[C@H](O)[C@H](O)[C@H]1O
low band

Pick a category. Item: O=c1c(O)c(-c2cc(O)c(O)c(O)c2)oc2cc(O)cc(O)c12
low band

Pick a category. Item: COC(=O)[C@H](O)[C@@H](OC(=O)/C=C/c1ccc(O)cc1)C(=O)O
middle band

Pick a category. Item: O=C(O)c1cc(O)c(O)c(O)c1
low band

Pick a category. Item: CC(=O)CCc1ccc(O[C@@H]2O[C@H](CO)[C@@H](O)[C@H](O)[C@H]2O)cc1
high band

Pick a category. Item: C[C@@H]1O[C@@H](Oc2c(-c3ccc(O)cc3)oc3cc(O)cc(O)c3c2=O)[C@H](O)[C@H](O)[C@H]1O
high band

* * *

Known inhibition at 1000 µg/mL of a selection of compounds
- assay target: Acetylcholinesterase (AChE) (Electrophorus electricus)
- test: Acetylcholinesterase inhibitory activity (ATCI/DTNB)
- Format: biochemical
- experimental parameters: read-out: Acetylcholinesterase Inhibition (%)
Give the value, in units of %, as a plain number.

// below: answered compounds
Quote Acetylcholinesterase (AChE) (Electrophorus electricus) inhibition at 1000 µg/mL for entry COC(=O)C[C@H]1CCC(=O)[C@H]1C/C=C\CCO[C@@H]1O[C@H](CO)[C@@H](O)[C@H](O)[C@H]1O [Compound 14, methyl-β-D-glucopyranosyl tuberonate] .
47.2

Quote Acetylcholinesterase (AChE) (Electrophorus electricus) inhibition at 1000 µg/mL for entry COc1cc(-c2oc3cc(O)cc(O)c3c(=O)c2O)ccc1O [Compound 4, isorhamnetin] .
68.1

Quote Acetylcholinesterase (AChE) (Electrophorus electricus) inhibition at 1000 µg/mL for entry O=c1c(O)c(-c2ccc(O)cc2)oc2cc(O)cc(O)c12 [Compound 6, kaempferol] .
82.2

Switching to the query record.
Quote Acetylcholinesterase (AChE) (Electrophorus electricus) inhibition at 1000 µg/mL for entry COC(=O)[C@H](O)[C@@H](OC(=O)/C=C/c1ccc(O)cc1)C(=O)O [Compound 2] .
39.5

* * *

- assay target: Acetylcholinesterase (AChE) (Electrophorus electricus, UniProt O42275)
- Sequence (O42275 24-633): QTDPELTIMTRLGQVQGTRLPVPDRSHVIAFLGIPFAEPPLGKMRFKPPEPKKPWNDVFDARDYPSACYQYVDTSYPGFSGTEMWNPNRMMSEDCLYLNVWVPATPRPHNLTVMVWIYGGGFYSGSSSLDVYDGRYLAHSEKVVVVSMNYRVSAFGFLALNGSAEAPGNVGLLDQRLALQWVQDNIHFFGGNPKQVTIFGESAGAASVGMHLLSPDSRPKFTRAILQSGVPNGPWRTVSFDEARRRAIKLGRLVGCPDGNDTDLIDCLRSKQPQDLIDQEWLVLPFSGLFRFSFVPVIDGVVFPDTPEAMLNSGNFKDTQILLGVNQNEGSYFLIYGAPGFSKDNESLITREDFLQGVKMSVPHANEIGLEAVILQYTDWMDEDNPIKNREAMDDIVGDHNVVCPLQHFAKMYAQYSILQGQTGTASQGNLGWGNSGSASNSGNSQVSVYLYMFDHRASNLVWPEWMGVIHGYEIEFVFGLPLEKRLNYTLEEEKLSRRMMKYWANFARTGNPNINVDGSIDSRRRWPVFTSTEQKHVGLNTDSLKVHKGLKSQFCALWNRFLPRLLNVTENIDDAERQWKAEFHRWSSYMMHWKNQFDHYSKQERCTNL
- test: Acetylcholinesterase inhibitory activity (ATCI/DTNB)
- Assay type: biochemical
- experimental parameters: read-out: Acetylcholinesterase Inhibition (%)
reported property: inhibition at 1000 µg/mL (%)
Give the value, in units of %, as a plain number.

Quick one: give measured inhibition at 1000 µg/mL for C[C@@H]1O[C@@H](Oc2c(-c3ccc(O)c(O)c3)oc3cc(O)cc(O)c3c2=O)[C@H](O)[C@H](O)[C@H]1O
40.1

Quick one: give measured inhibition at 1000 µg/mL for C[C@@H]1O[C@@H](Oc2c(-c3cc(O)c(O)c(O)c3)oc3cc(Oc4cc(O)c5c(=O)c(O[C@@H]6O[C@@H](C)[C@H](O)[C@@H](O)[C@H]6O)c(-c6cc(O)c(O)c(O)c6)oc5c4)cc(O)c3c2=O)[C@H](O)[C@H](O)[C@H]1O
61.3

Quick one: give measured inhibition at 1000 µg/mL for O=c1c(O)c(-c2ccc(O)c(O)c2)oc2cc(O)cc(O)c12
83.7

Quick one: give measured inhibition at 1000 µg/mL for CC(=O)CCc1ccc(O[C@@H]2O[C@H](CO)[C@@H](O)[C@H](O)[C@H]2O)cc1
39.8

Quick one: give measured inhibition at 1000 µg/mL for O=C1c2c(O[C@@H]3O[C@H](CO)[C@@H](O)[C@H](O)[C@H]3O)cc(O)cc2OC1(O)Cc1ccc(O)cc1 (stereo partly drawn) [Compound 15, hovetrichoside C]
39.9

Quick one: give measured inhibition at 1000 µg/mL for O=C(O)c1cc(O)c(O)c(O)c1
71.7

***
Quick one: give measured inhibition at 1000 µg/mL for O=c1c(O)c(-c2cc(O)c(O)c(O)c2)oc2cc(O)cc(O)c12
85.3

Quick one: give measured inhibition at 1000 µg/mL for COC(=O)[C@@H](O)[C@H](OC(=O)/C=C/c1ccc(O)cc1)C(=O)OC
38.4

Quick one: give measured inhibition at 1000 µg/mL for CC[C@H](CC[C@@H](C)[C@H]1CC[C@H]2[C@@H]3CC=C4C[C@@H](O[C@@H]5O[C@H](CO)[C@@H](O)[C@H](O)[C@H]5O)CC[C@]4(C)[C@H]3CC[C@]12C)C(C)C
40.8
